Property: pKd; scope: individual binders
- Target Of Assay: VEGF165 (Homo sapiens, UniProt P15692-4 P15692-4:27-191)
- Sequence (P15692 other isoform, or with tags, fused parts or gaps): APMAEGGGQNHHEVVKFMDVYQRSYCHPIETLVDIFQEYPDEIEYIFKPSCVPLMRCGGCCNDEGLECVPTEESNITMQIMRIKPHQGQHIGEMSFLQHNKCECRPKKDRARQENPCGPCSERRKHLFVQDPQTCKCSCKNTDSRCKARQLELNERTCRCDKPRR
- Test Method Notes: filter; 37 C
- Conditions Used: tags: carrier-free, Sf 21 insect cell expressed, R & D Systems; chain copies: 2 (inferred)
Hey, just a heads up that pKd is the negative log base 10 of the concentration in molar.

VT30.15 (ssRNA, 2'-F pyrimidines) RNA: GGGAGGACGAUGCGGAACCAGUGAAUGCUUAUAAGACUGCUCGUCAGACGACUCGCCCGA = 11.52
VP40.2 (ssRNA, 2'-F pyrimidines) RNA: GGGAGGACGAUGCGGAUCUGUGAACUGGGUUUUUGCCGACGGUUACGCUUUUGCUCAGACGACUCGCCCGA = 10.46
VP30.43 (ssRNA, 2'-F pyrimidines) RNA: GGGAGGACGAUGCGGUAACCGAAUUGAAGUUAUUGGACGCUACCUCAGACGACUCGCCCGA = 11.30
VP40.36 (ssRNA, 2'-F pyrimidines) RNA: GGGAGGACGAUGCGGCAGGUUCAGAAUUGGCAGUCGCAUUGAUCUUUUUCACCGCCAGACGACUCGCCCGA = 8.89
VP30.20 (ssRNA, 2'-F pyrimidines) RNA: GGGAGGACGAUGCGGUUGAUCGGACGUUAGUCAUUUCCCGAUCGUCAGACGACUCGCCCGA = 10.24

Documented pKd of VT30.20 (ssRNA, 2'-F pyrimidines) RNA: GGGAGGACGAUGCGGAAACGGAAGAAUUGGAUACCGCUACGUGUUCAGACGACUCGCCCGA : 11.40

Reported pKd of VT30.38 (ssRNA, 2'-F pyrimidines) RNA: GGGAGGACGAUGCGGAGCGGUAUUCUGUUCGGUCGUUUUCCUCCUCAGACGACUCGCCCGA : 11.30

The binder listed as VP30.14 (ssRNA, 2'-F pyrimidines) RNA: GGGAGGACGAUGCGGACUGGGAGAAUCCGAAAAACCUUCACGCGUCAGACGACUCGCCCGA has a reported pKd of 10.60

Form: binder = VT30.52 (ssRNA, 2'-F pyrimidines) RNA: GGGAGGACGAUGCGGAAGAAUUGAGCAUUCCUUCUCCUUGUGCCUCAGACGACUCGCCCGA ; pKd = 8.05

response.value for VT30.53 (ssRNA, 2'-F pyrimidines) RNA: GGGAGGACGAUGCGGAGCUAACGGAAGAAUUGGAAACAACCGCGUCAGACGACUCGCCCGA (field: pKd) = 11.00

Reported pKd ( VP30.40 (ssRNA, 2'-F pyrimidines) RNA: GGGAGGACGAUGCGGAAACGGAAGAAUUGGAUACGCAAGCACGUUCAGACGACUCGCCCGA ) = 11.22

# binder VT30.9 (ssRNA, 2'-F pyrimidines) RNA: GGGAGGACGAUGCGGUCAACCGGUUGAAUAUUUGGUCGCUGACCUCAGACGACUCGCCCGA ; its pKd = 10.52

pKd reading for VP30.25 (ssRNA, 2'-F pyrimidines) RNA: GGGAGGACGAUGCGGCGGGAUUUUGGAAGAAUUGGAUAUUGGCCUCAGACGACUCGCCCGA : 10.70

For record VP30.19 (ssRNA, 2'-F pyrimidines) RNA: GGGAGGACGAUGCGGCACUUUAGAAGAAUUGAAUUUCCCGCUGGUCAGACGACUCGCCCGA the listed pKd is 11.05

Input VP30.58 (ssRNA, 2'-F pyrimidines) RNA: GGGAGGACGAUGCGGCAACUAUUCGUUGAUGUUUCCGUGAGCCGUCAGACGACUCGCCCGA . Output pKd: 11.22

Memo: VP40.5 (ssRNA, 2'-F pyrimidines) RNA: GGGAGGACGAUGCGGUUGAUCGAGGUUCUAAAGCCUAUUUCCUGACUUUCUCCCCCAGACGACUCGCCCGA , reported pKd: 10.72
